- procedure details: soluble on expression in E. coli; label from the status in PepcDB or PDB records
property name: soluble on expression in E. coli

// known answers, use as guide
MGSDKIHHHHHHMIHWLKVPNNPELAKYIACYWFLEKLPNAEGHNDYPKLNPDPASHLILALPQQNFRYKSDNGVTQMDGCHWLHPHGKTYELDHAKAVACIGIKFHVGALYSLPTFMDLQEQTPQAVVDTVEAISFENINFAQSNFDDHKLSDNNQLNEHDLVILARNSPDDCAEMLDKLCLPWLLKNHEDNHSELTRKVLPLLAKAAINSLGDTLFCSQRTLERSFLKVSGVTLKQCQSMNRLEAILEFLYQREQSDIDWVDIAYQFGFSDQPHLIRYLKKQLGLTPQDYALQRGFTIDVYGGVDSL not soluble
MKYAVLIGDGMADYPIEELGSRTILQAARTPAMDSIAARGKTGLAKTVPEGFPPGSDVANMSIFGYDPAIYYSGRAPLEAASMGVALAADDVAFRCNLITIENGKIKDYSAGHISSDEAEILIDTLDSELRTEKVRFYPGISYRHLIVAGNDLGAETECLEHHHHHH soluble
MGSDKIHHHHHHETRECIYYNANWELERTNQSGLERCEGEQDKRLHCYASWRNSSGTIELVKKGCWLDDFNCYDRQECVATEENPQVYFCCCEGNFCNERFTHLPEPG soluble
MIGRNRYAMLTVDTEALPKRAVQDHIKRLMWGEHDGGCAGIREMCAIGNECGVKQVFFVDMCGAYACLDQTLDVVRWLDQDGQDVQLHAHPEYLPEQFWKEHGFKYRPRFLNQYGIEKATFTIKYFGKLISDLTGKPLRAFRAGSFRWNADTLRALQEAGVSLSFNNSMNARLKGQCTYSEPTNHSYLWSNGVIEVPVTERKFFPLFGKEWWGRLQFPVGDWLGSPPWRVLRPYTVGADPSFLVVLLHSWSLLYWDKDGYAVYRDDKRIEDYRKLVRRLARDYDIITTADFLDLYACGKIKTTHTADLSLAEFKAVKKLEHHHHHH not soluble
MSCPVIELTQQLIRRPSLSPDDAGCQALLIERLQAIGFTVERMDFADTQNFWAWRGQGETLAFAGHTDVVPPGDADRWINPPFEPTIRDGMLFGRGAADMKGSLAAMVVAAERFVAQHPNHTGRLAFLITSDEEASAHNGTVKVVEALMARNERLDYCLVGEPSSIEVVGDVVKNGRRGSLTCNLTIHGVQGHVAYPHLADNPVHRAAPFLNELVAIEWDQGNEFFPATSMQIANIQAGTGSNNVIPGELFVQFNFRFSTELTDEMIKAQVLALLEKHQLRYTVDWWLSGQPFLTARGKLVDAVVNAVEHYNEIKPQLLTTGGTSDGRFIARMGAQVVELGPVNATIHKINECVNAADLQLLARMYQRIMEQLVA soluble

Now let's try a different one.
Q) Please report soluble on expression in E. coli for the following sequence: `YEMSSVGVINLRNMYSTYDPTEVKGKINEGPPFSGSLFYKNIPYGNSSIELKVEMNSVEKANFFSGKRVDIFTLEYSPPSNSNIKKNSYGGITLSDGNRIDKKNIPVNIFIDGVQQKYSYTDISTVSTDKKEVTIQELDVKSRYYLQKHFNIYGFGDVKDFGRSSRFQSGFEEGNIIFHLNSGERISYNMFDTGHGDRESMLKKYSDNKTAYSDQLHIDIYLVKFNK`
A) soluble
